- EXPERIMENTAL_SYSTEM: T1, macaca fascicularis (mf) PRLR.mmh (soluble monomeric monkey PRLR) (Macaca fascicularis)
- T1 construct: called soluble monomeric PRLR protein
- T1 chain: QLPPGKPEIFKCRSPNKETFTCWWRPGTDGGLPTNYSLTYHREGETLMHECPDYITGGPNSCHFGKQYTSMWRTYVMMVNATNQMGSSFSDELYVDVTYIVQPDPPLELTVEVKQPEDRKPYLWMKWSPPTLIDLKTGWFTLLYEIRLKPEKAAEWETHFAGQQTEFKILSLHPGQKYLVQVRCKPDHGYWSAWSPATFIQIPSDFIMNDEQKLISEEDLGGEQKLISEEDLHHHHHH
- EXPERIMENTAL_PROTOCOL: SPR Biacore, 25 C, mAb capture
RESULT_TYPE: kon (M⁻¹ s⁻¹)

INSERT INTO assay_data (binder, result_type, readout_value) VALUES
  ('H1H6765P (antibody, human IgG1, V domains shown, Human IgG1 Fc (H1H)) VH: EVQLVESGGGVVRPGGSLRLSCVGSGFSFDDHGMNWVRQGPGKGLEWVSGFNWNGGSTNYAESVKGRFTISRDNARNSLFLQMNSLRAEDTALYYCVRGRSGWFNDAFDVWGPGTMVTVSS VL: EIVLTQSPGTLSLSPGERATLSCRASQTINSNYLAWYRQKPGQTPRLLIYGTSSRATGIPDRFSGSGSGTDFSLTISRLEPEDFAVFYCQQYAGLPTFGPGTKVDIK', 'kon', 527000),
  ('H1H6800P (antibody, human IgG1, V domains shown, Human IgG1 Fc (H1H)) VH: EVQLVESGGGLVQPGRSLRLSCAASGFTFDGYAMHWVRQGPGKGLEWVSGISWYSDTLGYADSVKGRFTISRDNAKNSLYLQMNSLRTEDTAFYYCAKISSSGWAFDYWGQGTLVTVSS VL: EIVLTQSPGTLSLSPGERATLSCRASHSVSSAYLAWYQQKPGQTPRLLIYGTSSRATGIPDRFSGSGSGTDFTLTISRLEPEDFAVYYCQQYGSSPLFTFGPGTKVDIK', 'kon', 303000),
  ('H1H6803P (antibody, human IgG1, V domains shown, Human IgG1 Fc (H1H)) VH: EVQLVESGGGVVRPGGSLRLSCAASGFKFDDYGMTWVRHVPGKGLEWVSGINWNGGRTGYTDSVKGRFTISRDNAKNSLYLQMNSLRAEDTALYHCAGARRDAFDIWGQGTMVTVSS VL: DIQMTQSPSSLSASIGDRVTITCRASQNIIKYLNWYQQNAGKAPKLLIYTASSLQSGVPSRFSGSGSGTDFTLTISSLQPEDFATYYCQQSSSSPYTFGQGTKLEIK', 'kon', 62100);
